Every entry's value here was drawn from patent US12187709B2.

Exercise: for every item that follows, state its recorded Fold of selectivity.
Biological target: Human Cbl-b (residues 40-426) (Homo sapiens (Human), UniProt Q13191)
Sequence (Q13191 40-426): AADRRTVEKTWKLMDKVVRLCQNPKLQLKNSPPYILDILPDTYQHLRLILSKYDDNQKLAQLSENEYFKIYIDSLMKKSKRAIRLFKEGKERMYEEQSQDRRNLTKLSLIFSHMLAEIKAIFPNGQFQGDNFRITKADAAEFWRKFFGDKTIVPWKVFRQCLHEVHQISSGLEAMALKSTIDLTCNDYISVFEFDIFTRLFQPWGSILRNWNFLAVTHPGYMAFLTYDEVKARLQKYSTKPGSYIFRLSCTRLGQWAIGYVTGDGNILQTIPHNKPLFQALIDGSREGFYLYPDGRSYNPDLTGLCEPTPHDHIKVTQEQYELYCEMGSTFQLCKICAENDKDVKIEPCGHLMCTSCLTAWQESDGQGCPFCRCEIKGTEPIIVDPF
Test: Cbl-b SPR assay
Type: binding
Details: C-cbl SPR Kd vs Cbl-b SPR Kd
Write down the numeric answer in × and omit the unit.

Q: What Fold of selectivity value was documented for this compound, Cn1cnnc1[C@]1(c2cccc(N3Cc4c(cc(CNC5(C)CCC5)cc4C(F)(F)F)C3=O)c2)C[C@H](OCC#N)C1 [Compound 280] ?
Result: 7.0

Q: Further, for CO[C@H]1C[C@](c2cccc(N3Cc4c(cc(CNC5CC6(C5)CC6F)cc4C(F)(F)F)C3=O)c2)(c2nncn2C)C1 (stereo partly drawn) [Compound 504] ?
Result: 16

Q: Also need Cn1cnnc1[C@]1(c2cccc(N3Cc4c(cc(CNC5(C)CCC5)cc4C(F)(F)F)C3=O)c2)C[C@@H](CF)C1 [Compound 101] , thanks.
Result: 4.9

Q: Also Cn1cnnc1[C@H](c1cccc(N2Cc3c(cc(CNC4(C)CCC4)cc3C(F)(F)F)C2=O)c1)[C@H]1C[C@@H](C#N)C1 (single isomer, unassigned) [Compound 141] , if possible.
Result: 5.1

Q: Another: Cn1cnnc1C(F)(c1cccc(N2Cc3c(cc(CNC4(C)CCC4)cc3C(F)(F)F)C2=O)c1)C1COC1 (single isomer, unassigned) [Compound 150]
Result: 8.5

Q: Next entry: Cn1cnnc1C1(c2cccc(N3Cc4c(cc([C@H](CO)NC5(C)CCC5)cc4C(F)(F)F)C3=O)c2)CCC1 (single isomer, unassigned) [Compound 148]
Result: 6.7

Q: Can you check Cn1cnnc1[C@H](c1cccc(N2Cc3c(cc(CNC4(C)CCC4)cc3C(F)(F)F)C2=O)c1)[C@H]1C[C@H](C#N)C1 (single isomer, unassigned) [Compound 142] next?
Result: 3.8

Q: Now this one: CC[C@H]1C[C@@](c2cccc(N3Cc4c(cc(CNC5(C)CCC5)cc4C(F)(F)F)C3=O)c2)(c2nncn2C)C1 [Compound 454]
Result: 11

Q: Queued: Cn1cnnc1[C@]1(c2cc(NC3CCCC3)cc(N3Cc4c(cc(CNC5(C)CCC5)cc4C(F)(F)F)C3=O)c2)C[C@H](C)C1 [Compound 177]
Result: 10

Q: Continue with Cn1cnnc1[C@H](C[C@@H]1COCCO1)c1cccc(N2Cc3c(cc(CNC4(C)CCC4)cc3C(F)(F)F)C2=O)c1 [Compound 297]
Result: 2.0

Q: And then Cn1cnnc1[C@@](O)(c1cccc(N2Cc3c(cc(CNC4(C)CCC4)cc3C(F)(F)F)C2=O)c1)C(F)(F)F (single isomer, unassigned) [Compound 308] , what is it?
Result: 1.5

Q: Now the compound CO[C@H]1C[C@](c2cccc(N3Cc4c(cc(CN5CCCCCC5)cc4C(F)(F)F)C3=O)c2)(c2nncn2C)C1 [Compound 490]
Result: 14

* * *

Assignment: determine reported fold-selectivity (Cbl-b over C-cbl) for the given molecules.
Target: Cbl-b (Homo sapiens (Human))
Assay: Cbl-b LCK Ub TR-FRET assay (Cbl-b Lck HTRF)
Assay type: biochemical
Conditions: ratio C-cbl Lck HTRF IC50 / Cbl-b Lck HTRF IC50
State just the number; it will be interpreted in x.

Q: What fold-selectivity (Cbl-b over C-cbl) value was documented for this molecule, C[C@@H](NC1(C)CCC1)c1cc(Cl)c2c(c1)C(=O)N(c1cccc([C@]3(c4nncn4C)C[C@@H](F)C3)c1)C2 (single isomer, unassigned) ?
Result: 0.92

Q: Also C=C[C@H](C)Nc1cc(N2Cc3c(cc(CNC4(C)CCC4)cc3C(F)(F)F)C2=O)cc([C@]2(c3nncn3C)C[C@H](OC)C2)c1 (single isomer, unassigned) , if possible.
Result: 3.0

Q: Further, for CC[C@](O)(c1cccc(N2Cc3c(cc(CNC4(C)CCC4)cc3C(F)(F)F)C2=O)c1)c1nncn1C (single isomer, unassigned) ?
Result: 1.0

Q: Note, next up: Cn1cnnc1[C@]1(c2cccc(N3Cc4c(cc(CNC5(C)CCC5)cc4C(F)(F)F)C3=O)c2)C[C@H]([S@+](C)[O-])C1 (single isomer, unassigned)
Result: 2.1

Q: Record: "CO[C@H]1C[C@@](c2cc(NC3CCCC3)cc(N3Cc4c(cc(CNC5(C)CCC5)cc4C(F)(F)F)C3=O)c2)(c2nncn2C)C1"
Result: 10

Q: Another molecule to look at: Cn1cnnc1C1(c2cccc(N3Cc4c(cc(CNC5(C)CCC5)cc4C(F)(F)F)C3=O)c2)CC2(CC(O)C2)C1 (stereo not drawn)
Result: 7.3

Q: Then what about the molecule Cn1cnnc1C(F)(c1cccc(N2Cc3c(cc(CNC4(C)CCC4)cc3C(F)(F)F)C2=O)c1)C1COC1 (single isomer, unassigned) [Compound 150] ?
Result: 1.4

Q: Quick one: "CO[C@H]1C[C@](c2cc(OC3CCCC3)cc(N3Cc4c(cc(CNC5(C)CCC5)cc4C(F)(F)F)C3=O)c2)(c2nncn2C)C1"
Result: 2.6

Q: Next entry: "Cn1cnnc1C1(c2cc(NCCC#N)nc(N3Cc4c(cc(CNC5(C)CCC5)cc4C(F)(F)F)C3=O)c2)CC2(COC2)C1"
Result: 1.0

Q: Same read-out for "Cn1cnnc1[C@H](C[C@@H]1CCOC1)c1cccc(N2Cc3c(cc(CNC4(C)CCC4)cc3C(F)(F)F)C2=O)c1" ?
Result: 1.0

Q: Note, next up: C[C@@H](c1cccc(N2Cc3c(cc(CNC4(C)CCC4)cc3C(F)(F)F)C2=O)c1)c1nncn1C (single isomer, unassigned)
Result: 2.0

Q: Can you handle "CO[C@H]1C[C@](c2cccc(N3Cc4c(cc(CNC5(C)CCC5)cc4C(F)F)C3=O)c2)(c2nncn2C)C1" next?
Result: 5.0

Q: Same again, this time with C[C@@H](NC1(C)CCC1)c1cc2c(c(C(F)(F)F)c1)CN(c1cccc(C3(c4nncn4C)CC(F)(F)C3)c1)C2=O (single isomer, unassigned)
Result: 0.80

Q: Here is the next molecule: "CO[C@H]1C[C@](c2cc(NCCC#N)cc(N3Cc4c(cc(CNC5(C)CCC5)cc4C(F)(F)F)C3=O)c2)(c2nncn2C)C1"
Result: 4.2

Q: Would you kindly repeat that for "Cn1cnnc1C1(c2cccc(N3Cc4c(cc(CNC5(C)CCC5)cc4C(F)F)C3=O)c2)CC2(COC2)C1" ?
Result: 4.5

Q: Subsequent entry: "CNc1cc(N2Cc3c(cc(CNC4(C)CCC4)cc3C(F)(F)F)C2=O)cc([C@]2(c3nncn3C)C[C@@H](OC)C2)c1"
Result: 1.1

Q: Do the same for Cn1cnnc1[C@@H](c1cccc(N2Cc3c(cc(CNC4(C)CCC4)cc3C(F)(F)F)C2=O)c1)C1CC(OC(F)F)C1 (single isomer, unassigned) [Compound 388] please
Result: 7.6
